Test Details: Highest frequency of moderate liver toxicity observed during clinical trials, expressed as a percentage. [column '% BIOL' in source]
Condition Set: human
Label rule, in plain words: Hepatotoxicity (moderate) of 4% and up is true, under 4% is false.

Compound	Discrete Label
CCC1(C)CC(=O)NC1=O (configuration not stated) [ETHOSUXIMIDE]	false
COc1cc2[nH]c(C)c(CCN3CCN(c4ccccc4)CC3)c2cc1OC	false
O=c1n(CCCN2CCN(c3cccc(Cl)c3)CC2)nc2ccccn12	false
CO[C@H]1/C=C/O[C@@]2(C)Oc3c(C)c(O)c4c(O)c(c(/C=N/N5CCN(C)CC5)c(O)c4c3C2=O)NC(=O)/C(C)=C\C=C\[C@H](C)[C@H](O)[C@@H](C)[C@@H](O)[C@@H](C)[C@H](OC(C)=O)[C@@H]1C	true
CCOC(=O)C(C)(CC)Oc1ccc(Cc2ccc(Cl)cc2)cc1 (configuration not stated) [BECLOBRATE]	false
CCC1(c2ccccc2)C(=O)NC(=O)N(C)C1=O (configuration not stated)	false
CCCCC(C)(C)[C@H](O)/C=C/[C@H]1[C@H](C)CC(=O)[C@@H]1C/C=C\CCCC(=O)O	false
CCN(CC)CCOc1ccc(C(=C(Cl)c2ccccc2)c2ccccc2)cc1	false
Cc1ccc(Cl)c(Nc2ccccc2C(=O)O)c1Cl	false
CC(C(=O)O)c1ccc(C(=O)c2ccccc2)s1 (configuration not stated)	false
O=C1Nc2ccc(Cl)cc2[C@@](C#CC2CC2)(C(F)(F)F)O1	true
NS(=O)(=O)Cc1noc2ccccc12 [ZONISAMIDE]	true
N[C@@H](C(=O)N[C@@H]1C(=O)N2C(C(=O)O)=C(Cl)CC[C@H]12)c1ccccc1 [LORACARBEF ANHYDROUS]	true
CC(COc1ccccc1)NN (configuration not stated)	false
CCS(=O)(=O)CCn1c([N+](=O)[O-])cnc1C	false
Cc1ccc(C(=O)Nc2ccc(S(=O)(=O)O)c3cc(S(=O)(=O)O)cc(S(=O)(=O)O)c23)cc1NC(=O)c1cccc(NC(=O)Nc2cccc(C(=O)Nc3cc(C(=O)Nc4ccc(S(=O)(=O)O)c5cc(S(=O)(=O)O)cc(S(=O)(=O)O)c45)ccc3C)c2)c1	true
Nc1nc(O)c2ncn(COC(CO)CO)c2n1	true
